Reference source: patent US20220048991A1

- tested system: T1, recombinant ILT2 (human) (human, UniProt Q8NHL6 24-461)
- T1 construct: also called recombinant ILT2 peptide; ILT2 protein
- T1 sequence (Q8NHL6 24-461 limits assumed): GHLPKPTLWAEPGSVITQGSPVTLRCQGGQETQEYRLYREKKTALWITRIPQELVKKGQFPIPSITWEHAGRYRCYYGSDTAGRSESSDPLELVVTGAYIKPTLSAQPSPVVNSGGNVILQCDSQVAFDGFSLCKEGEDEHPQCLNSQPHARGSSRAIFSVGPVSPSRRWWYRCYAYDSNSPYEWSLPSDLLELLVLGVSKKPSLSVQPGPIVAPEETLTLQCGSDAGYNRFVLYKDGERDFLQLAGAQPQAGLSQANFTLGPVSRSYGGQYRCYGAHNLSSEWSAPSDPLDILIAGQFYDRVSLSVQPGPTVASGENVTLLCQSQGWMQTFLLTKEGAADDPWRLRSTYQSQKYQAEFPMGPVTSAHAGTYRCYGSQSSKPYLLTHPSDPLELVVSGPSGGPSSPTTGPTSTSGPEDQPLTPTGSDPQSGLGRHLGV
- assay info: SPR (Biacore T200), HEK EBNA supernatants on recombinant ILT2 peptide
measure: Kd (nM)
Answer format: numeric, nM implied, no suffix.

>  <binder>
humanized 15G8 VH1/Vk4 (antibody, IgG4, V domains shown, Humanized IgG4 (S228P, L235E), kappa; tested as supernatant of transiently transfected HEK EBNA cells) VH: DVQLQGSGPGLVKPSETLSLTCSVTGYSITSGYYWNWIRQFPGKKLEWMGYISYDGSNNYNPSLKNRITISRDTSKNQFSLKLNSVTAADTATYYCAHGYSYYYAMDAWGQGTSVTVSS VL: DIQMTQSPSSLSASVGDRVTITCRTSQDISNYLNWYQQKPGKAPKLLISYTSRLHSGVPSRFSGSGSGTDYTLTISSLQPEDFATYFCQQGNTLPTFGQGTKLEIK

>  <Kd, nM>
18.7

$$$$
>  <binder>
humanized 15G8 VH5/Vk1 (antibody, IgG4, V domains shown, Humanized IgG4 (S228P, L235E), kappa; tested as supernatant of transiently transfected HEK EBNA cells) VH: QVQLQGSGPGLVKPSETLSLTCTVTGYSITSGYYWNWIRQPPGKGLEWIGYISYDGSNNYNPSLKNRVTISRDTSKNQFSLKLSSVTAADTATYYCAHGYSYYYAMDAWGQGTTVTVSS VL: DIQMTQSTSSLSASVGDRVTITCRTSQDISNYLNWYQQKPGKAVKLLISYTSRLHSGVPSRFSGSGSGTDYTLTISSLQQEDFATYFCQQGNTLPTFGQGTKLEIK

>  <Kd, nM>
8.55

$$$$
>  <binder>
humanized 15G8 VH1/Vk2 (antibody, IgG4, V domains shown, Humanized IgG4 (S228P, L235E), kappa; tested as supernatant of transiently transfected HEK EBNA cells) VH: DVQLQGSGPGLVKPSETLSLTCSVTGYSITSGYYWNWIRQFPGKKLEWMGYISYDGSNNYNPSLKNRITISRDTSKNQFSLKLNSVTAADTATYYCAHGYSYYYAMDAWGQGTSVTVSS VL: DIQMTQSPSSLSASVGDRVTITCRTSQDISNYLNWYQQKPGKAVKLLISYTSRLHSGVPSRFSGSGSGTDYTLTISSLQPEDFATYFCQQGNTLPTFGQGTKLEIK

>  <Kd, nM>
8.82

$$$$
>  <binder>
15G8-44 (humanized 15G8, VH4/Vk4) (antibody, IgG4, V domains shown, Humanized IgG4 (S228P, L235E), kappa) VH: QVQLQGSGPGLVKPSETLSLTCSVTGYSITSGYYWNWIRQPPGKGLEWMGYISYDGSNNYNPSLKNRVTISRDTSKNQFSLKLSSVTAADTATYYCAHGYSYYYAMDAWGQGTTVTVSS VL: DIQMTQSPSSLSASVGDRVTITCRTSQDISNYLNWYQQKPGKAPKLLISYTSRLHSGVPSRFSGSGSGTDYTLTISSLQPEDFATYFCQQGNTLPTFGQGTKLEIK

>  <Kd, nM>
13.5

$$$$

Lab note: next binder to report on.
Answer with reported Kd of humanized 15G8 VH1/Vk1 (antibody, IgG4, V domains shown, Humanized IgG4 (S228P, L235E), kappa; tested as supernatant of transiently transfected HEK EBNA cells) VH: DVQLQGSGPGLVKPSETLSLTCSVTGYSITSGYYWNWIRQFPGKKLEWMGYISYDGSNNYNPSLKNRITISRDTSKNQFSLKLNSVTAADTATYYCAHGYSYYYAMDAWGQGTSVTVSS VL: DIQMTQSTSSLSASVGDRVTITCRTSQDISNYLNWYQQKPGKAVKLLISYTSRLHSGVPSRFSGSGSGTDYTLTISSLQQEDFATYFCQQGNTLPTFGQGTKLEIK
8.77
